Each record here notes measured protein stability index.
B1: SMG5 (parent)
chain: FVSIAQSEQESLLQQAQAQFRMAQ

# Variants of: B1
# assay_details: protein stability index of a GFP-peptide fusion (GPS, HEK-293T) (PSI 1-6); higher = more stable;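 also: lentivirally expressed fusions sorted by FACS into six bins by GFP to DsRed ratio, PSI derived from sequencing read proportions per bin multiplied by bin number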
# condition_label: c terminus: a fixed tail appended
Form field (numeric): enter value without unit.

{"variant_annotation": "Q15F", "observed_property": "protein stability index", "data_value": 1.4}
{"variant_annotation": "A23T", "observed_property": "protein stability index", "data_value": 2.33}
{"variant_annotation": "Q24G", "observed_property": "protein stability index", "data_value": 1.71}

[in] Return value of protein stability index for input Q24F , no commentary.
[out] 2.48

[in] Return value of protein stability index for input Q24W , no commentary.
[out] 2.76

Data origin, for the record: the supplement of paper PMC10567573
